Provenance of the data: patent US20230272055A1

This listing pairs binders with measured kon.
# testSystem: T1, Recombinant MBP-mutCALR Type 1 fusion protein (human)
# T1 construct: custom made at Cepter; also called recombinant mutCALR protein
# protocol: SPR, IgG captured, 1:1 fit, Exp. 1
Record the result as number plus unit.

Examples with their reported kon follow.
anti-mutCALR antibody clone 34 (antibody, human IgG1, lambda, V domains shown, human IgG1) VH: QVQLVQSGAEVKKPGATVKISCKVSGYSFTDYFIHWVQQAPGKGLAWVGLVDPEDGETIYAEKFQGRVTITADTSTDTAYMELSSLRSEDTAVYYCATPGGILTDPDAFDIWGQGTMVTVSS VL: QSALTQPASVSGSPGQSITISCTGTSSDVGGYNYVSWYQQHPGKAPKLMIYEVSNRPSGVSNRFSGSKSGNTASLTISGLQAEDEADYYCSSYTSSSTYVFGTGTKVTVLG ... 2.27e+06 M⁻¹ s⁻¹
anti-mutCALR antibody clone 19 (antibody, human IgG1, lambda, V domains shown, human IgG1) VH: EVQLVQSGAEVKKPGASVKVSCKVSGYTLTELSMQWVRQAPGKGLEWMGGFDPDDGETMYAEKFQGRLTVTEDTPTDTVYMELRSLTSEDTALYFCATSPGYDFFDYWGQGTLVTVSS VL: SYVLTQPLSVSVALGQTARITCGGSNIGDIRVHWYQQKPGQAPVLVVYDDSDRPSGIPERFSGSNSGNTATLTINRVEAGDEADYYCQVWDSSNDLLIFGGGTKLTVLG ... 1.46e+06 M⁻¹ s⁻¹

Please turn your attention to the following entry.
Query: # input binder: anti-mutCALR antibody clone 49 (antibody, human IgG1, lambda, V domains shown, human IgG1) VH: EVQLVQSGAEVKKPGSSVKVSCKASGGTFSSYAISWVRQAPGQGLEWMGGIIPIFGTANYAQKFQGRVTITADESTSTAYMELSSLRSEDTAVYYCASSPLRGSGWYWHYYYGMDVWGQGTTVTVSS VL: SYELTQPPSVSVAPGKTARITCGGNNIRAKHVHWYQQKPGQSPVLVIYQDSKRPSGIPERFSGSNSGSTATLTISRVEAGDEADYYCQVWDSSTVVFGGGTKLTVLG ; wanted: its kon
Reply: 185000 M⁻¹ s⁻¹
